Ref: patent US9028845B2

test system: human PBMCs; experiment: Human PBMC cytokine response assay (IFN-γ and IFN-α in cell-free medium by ELISA), with or without cPLGA; format: cell-based; settings: donor 28186; Table 15
// values below are reported IFN-a
Give the value, in units of pg/mL, as a plain number.

Here is how some substances turned out for IFN-a.
5′-TCGTCGA-3′-HEG-5′-TCGTCGA-3′-HEG-5′-TCGTCGA-3′ [Compound C-21]	64
5′-TGCTGCA-3′-C3-5′-AGCTTGC-3′-C3-5′-AGATGAT-3′ (No CG) [Compound C-86]	4
5′-TCGTCG-3′-HEG-5′-AACGTT-3′-HEG-5′-AGATGAT-3′ [Compound C-23]	27
Starburst Dendrimer ® -(5′-TGACTGTGAACGTTCGAGATGA-3′)x (X range = 3-16) (SEQ ID NO: 2) (See Ex. 24) [Compound C-102]	187

Next item in the queue.
What the record says about 5′-TCGTCGA-3′-HEG-5′-ACGTTCG-3′-HEG-5′-AGATGAT-3′ [Compound C-8] : IFN-a is 31

###

tested on: human PBMCs; test: Human PBMC cytokine response assay (IFN-γ and IFN-α in cell-free medium by ELISA), with or without cPLGA; format: cell-based; settings: donor 28066; 20 ug/ml, 24 h; + PLGA = premixed with 100 μg/ml cPLGA
MEASUREMENT_LABEL: IFN-α (pg/ml) 28066

Here is how some substances turned out for IFN-α (pg/ml) 28066.
5′-TCGTCG-3′-HEG-5′-ACGTTCG-3′-HEG-5′-AGATGAT-3′ [Compound C-10]	6 pg/mL
5′-TCGTCGA-3′-HEG-5′-ACGTTCG-3′-HEG-5′-AGATGAT-3′ [Compound C-8]	6 pg/mL
5′-ACGTTCG-3′-HEG-5′-ACGTTCG-3′-HEG-5′-AGATGAT-3′ [Compound C-24]	0 pg/mL
5′-TCGTCG-3′-HME-5′-ACGTTCG-3′-HME-5′-AGATGAT-3′ [Compound C-25]	0 pg/mL
(5′-TCGTCGA-3′)2-glycerol-5′-TCGTCGA-3′ [Compound C-28]	0 pg/mL

Next item in the queue.
What the record says about 5′-TGCTGC-3′-HEG-5′-AGCTTGC-3′-HEG-5′-AGATGAT-3′ [Compound M-1, reference compound] : IFN-α (pg/ml) 28066 is 0 pg/mL

###

// values below are reported IFN-γ
system: human PBMCs; experiment: Human PBMC cytokine response assay (IFN-γ and IFN-α in cell-free medium by ELISA), with or without cPLGA; format: cell-based; details: Table 9; donor 28089
Strand notation (5' to 3'): a small letter for the sugar, then the base; units joined by * are phosphorothioate-linked, units joined directly phosphodiester-linked; [ ] holds rarer units or linkages, { } end groups; capitals alone tell only the bases. d = 2'-deoxy (DNA)
Numeric answer plus unit only.

Here is how some substances turned out for IFN-γ.
5′-TCGTCG-3′-HEG-5′-TCGTCG-3′-HEG-5′-TCGTCG-3′ [Compound C-22]	31 pg/mL
5′-TCGTCGA-3′-HEG-5′-TCGTCGA-3′-HEG-5′-TCGTCGA-3′ [Compound C-21]	61 pg/mL

What the record says about 5′-TGACTGTGAACCTTAGAGATGA-3′ (SEQ ID NO: 3) (dT*dG*dA*dC*dT*dG*dT*dG*dA*dA*dC*dC*dT*dT*dA*dG*dA*dG*dA*dT*dG*dA) [Compound P-7, negative control, reference compound] : IFN-γ is 0 pg/mL
